The values you see were collected from PubChem BioAssay (NCI).

For each of the compounds below, state its TGI.
# System: A549 NSCLC
# ASSAY TEXT: NCI tumour cell line growth inhibition, 48 h

Query: Form field: reported TGI of `CCOC(=O)C1=C(c2ccccc2)NC(c2ccccc2)=C(C(=O)OCC)c2c1c(=O)cc[nH]c2=O`
Result: > 100 µM

Query: Please give the measured TGI for this compound: `Cc1cc(S(=O)(=O)Nc2nc3ccccc3[nH]2)c(SCc2ccccc2)cc1Cl`
Result: > 100 µM

Query: Fill in: TGI of `Oc1ccccc1-c1n[nH]c(-c2ccccc2O)n1` is ___
Result: > 100 µM

Query: Any idea what TGI was measured for `Cc1ccc(N(/C=C/C(=O)C(F)(F)F)CC(=O)c2ccc(Cl)c(Cl)c2)cc1` ?
Result: 21.3 µM

Query: What value of measured TGI is listed for `Cc1cccc2c(N=Nc3ccccc3[N+](=O)[O-])c(O)[nH]c12` ?
Result: > 61.7 µM

Query: Using the record for `O=C1c2ccccc2C(=O)c2sc(Nc3ccc(Cl)cc3)nc21` , report its TGI.
Result: 24.6 µM

Query: What value of TGI has been recorded for this entry: O=c1[nH]cc(COCC(O)CO)c(=O)[nH]1 (configuration not stated)
Result: > 100 µM

Query: Find the recorded TGI belonging to `N#CCCN(CCCN(C(=O)Nc1ccc(NC(=O)N(CCCN(CCC#N)C(N)=O)c2ccccc2)cc1)c1ccccc1)C(N)=O` and report it.
Result: > 100 µM

Query: Give its TGI value. Item: `Cn1nc(S(N)(=O)=O)s/c1=N/S(=O)(=O)c1ccc(N)cc1`
Result: > 100 µM

Query: Please give the measured TGI for this compound: O=C(NN1C(=O)C(Cl)C1c1cccc(Cl)c1)c1ccccc1O (configuration not stated)
Result: > 100 µM

Query: TGI for `O=c1[nH]c2cc3[nH]c(=O)c(=O)[nH]c3cc2[nH]c1=O` ?
Result: > 100 µM

Query: # lookup: TGI of `O=C(Nc1cc(C(F)(F)F)cc(C(F)(F)F)c1)Nc1ccc(OCc2nnc(-c3ccc(Cl)cc3)o2)c(F)c1`
Result: 9.44 µM

Query: Return reported TGI; argument: `O=C1O/C(=C\C=C\CO)C=C1/C=C/CO`
Result: > 100 µM

Query: Can you look up the measured TGI of CC(=O)OC1CC2(O)C(CCC3(C)C(c4ccc(=O)oc4)CCC32O)C2(C)CCC(OC3OC(CO)C(O)C(O)C3O)C=C12 (configuration not stated) for me?
Result: 0.0278 µM

Query: Given the entry `COc1ccc2cc(/C=N\NC(=O)Nc3ccc([N+](=O)[O-])cc3)ccc2c1` , report its measured TGI.
Result: 18.5 µM

Query: Request the reported TGI associated with Cc1ccccc1NC(=O)C(=O)CC(=O)C1CCOC1=O (configuration not stated)
Result: > 100 µM

Query: Any idea what its TGI is? The compound is CCOC(=O)C(O)Cc1cnc2ccccc2n1 (configuration not stated)
Result: > 100 µM

---

# Test system: SNB-75 CNS
# ASSAY TEXT: NCI tumour cell line growth inhibition, 48 h
OBSERVABLE: TGI

Query: Value wanted: TGI (SNB-75 CNS) of entry `COC(=O)c1ccc(NC(N)=NCC(C)(C)COc2ccc(C(F)(F)F)cc2)nc1`
Result: 3.27 µM

Query: Give TGI (SNB-75 CNS) of the following compound: `C=C1[C@@H](O)C[C@H]2C(C)(C)C[C@H](Cl)C[C@]2(C)[C@H]1C[C@H](O)[C@H]1CC(=O)NC1=O`
Result: 0.706 µM

Query: Please state recorded TGI (tested on SNB-75 CNS) of CC(C)(C)OC(=O)NC(Cc1ccc(OCc2ccccc2)cn1)C(N)=O (stereo unspecified)
Result: > 100 µM

Query: Request body: readout TGI, system SNB-75 CNS, query `Nc1ccc(S(=O)(=O)NCCS(=O)(=O)O)cc1` . Return the value.
Result: > 100 µM

Query: Form entry - test system: SNB-75 CNS; read-out: TGI; compound: Cc1cc(Cl)cc2c1NC(=O)C2(O)CC(=O)c1ccc(F)cc1 (stereo unspecified)
Result: > 100 µM

Query: Form field - read-out: TGI; system: SNB-75 CNS; submitted item: `O=c1[nH]c2cc3[nH]c(=O)c(=O)[nH]c3cc2[nH]c1=O`
Result: > 100 µM

Query: Form field: TGI recorded for NC(=S)N/N=C1\CC(c2ccccc2)Nc2ccccc21 (stereo unspecified) with SNB-75 CNS (enter value)
Result: 49.1 µM

Query: Query for SNB-75 CNS: what TGI does the record show for COc1ccc(C2CC(c3cccc(OC)c3)=NN2C(=O)c2cc(OC)c(OC)c(OC)c2)cc1 (stereo unspecified) ?
Result: > 100 µM

Query: Could you share what TGI was measured for COC(=O)C1Cc2c([nH]c3ccccc23)-c2[nH]c3ccccc3c2CC(NC(C)=O)C(=O)NCC(=O)NCC(=O)N1 (stereo unspecified) , tested on SNB-75 CNS?
Result: > 100 µM

Query: Report TGI for CC1(C)N([O-])[N+](=O)C1(Br)c1ccccc1 (stereo unspecified) tested on SNB-75 CNS.
Result: > 100 µM

Query: Query the reported TGI for SNB-75 CNS; item: `CNC(=O)/C(=C/c1ccc(OC)cc1)c1cc(OC)c(OC)c(OC)c1`
Result: 4.4 µM

Query: Please tell me: TGI of `CCOC(=O)Nc1ccc(C(=O)/C=C/c2ccccc2)cc1` , system SNB-75 CNS?
Result: > 100 µM

Query: What measured TGI is associated with `CC(C)(C)Cc1cc(O)ccc1O` on SNB-75 CNS?
Result: > 100 µM

Query: Lab note: need TGI with SNB-75 CNS for entry `NC(=NCCO)c1ccc(N2CCCN(c3ccc(C(N)=NCCO)cc3)CC2)cc1` , please look it up.
Result: > 100 µM

Query: Form: Entry = `N/N=C(/CC(O)(C(F)(F)F)C(F)(F)F)c1ccccc1` | System = SNB-75 CNS | TGI = ____
Result: > 10 µM

Query: Record `Cc1ccc(NC(=O)N2CCCCC2)cc1[N+](=O)[O-]` : what is its TGI with SNB-75 CNS?
Result: > 100 µM

Query: Please tell me: TGI of CC(C)N(C(=O)C12C3(C(=O)C(C)(C)C)C4C5(C#N)C3C1(C(=O)C(C)(C)C)C5C42C(=O)C(C)(C)C)C(C)C (stereo unspecified) , system SNB-75 CNS?
Result: 91 µM

Query: Param readout= TGI; system= SNB-75 CNS; entry= `COc1cc2c(c(OC)c1OC)C(=O)c1c-2n(CCCN=[N+]=[N-])c(=O)c2cc([N+](=O)[O-])ccc12` ; returns value.
Result: 54.9 µM

Query: Field: TGI (SNB-75 CNS). Entry: `CCOC(=O)CON=c1c2ccccc2ccc2ccccc12`
Result: > 100 µM

Query: State its TGI on SNB-75 CNS: `O=C1Nc2ccc(CN3CCOC3=O)cc2/C1=C/c1cc(CN2CCOCC2)c[nH]1`
Result: > 100 µM

Query: Give SNB-75 CNS TGI for `Cc1ccc(N(/C=C/C(=O)C(F)(F)F)CC(=O)c2ccc(Cl)c(Cl)c2)cc1`
Result: 16.4 µM

---

# Tested on: OVCAR-3 ovarian
# ASSAY TEXT: NCI tumour cell line growth inhibition, 48 h
OBSERVABLE: GI50

Query: Using the record for C[CH2][Ge]([CH2]C)([CH2]C)[O]C(=O)C([O][Ge]([CH2]C)([CH2]C)[CH2]C)c1ccccc1 (stereo not drawn) , report its GI50.
Result: 16.2 µM

Query: Any idea what GI50 was measured for `CCCC(=O)O[C@]1(C)CC[C@@H]2[C@H]3[C@@H]1[C@@H]1C/C(C)=C\CC[C@](C)(OC(=O)[C@@H]2C)[C@H]3O1` ?
Result: 30.3 µM

Query: So what's the measured GI50 for this one? `CCOc1ccc(NC(=O)c2cc3ccccc3cc2O)cc1`
Result: > 100 µM

Query: If you can, please state the reported GI50 value of `Clc1ccc(N/N=C(\c2ccccc2)c2ccccn2)nc1` .
Result: 0.0379 µM

Query: # lookup: GI50 of `OCc1ncc(-c2ccccc2)s1`
Result: > 100 µM

Query: Requested read-out: GI50. Entry: `O=C(Nc1nc(-c2ccccc2)cs1)c1cc(O)c(O)c(O)c1`
Result: 3.39 µM

Query: Please look up its GI50: `COc1ccc2c(c1)C(=O)c1c-2n(CCCN=[N+]=[N-])c(=O)c2cc(N)ccc12`
Result: > 100 µM

Query: What value of GI50 has been reported for the following compound? CNC12C3C4C1C1C2C3C41C(=O)N[C@H](C(=O)N(C)[C@H](C[C@@H](OC(C)=O)c1nc(C(=O)N[C@@H](Cc2ccccc2)C[C@H](C)C(=O)OC)cs1)C(C)C)C1CC1 (stereo partly drawn)
Result: 0.0472 µM

Query: # input compound: `CSC(=NC#N)S/C=C/C(=O)c1cccc2ccccc12` ; wanted: its GI50
Result: 18 µM

Query: What value of GI50 has been reported for the following compound? `N=C1N=C(N)S/C1=C\c1ccc2ncccc2c1`
Result: > 25 µM

Query: // query GI50 value for entry `O=C(c1ccccc1)c1ccc(O)c2ncccc12`
Result: 2.1 µM

Query: Bench note: what GI50 did `Cc1ccc(S(=O)(=O)N[C@@H](Cc2ccccc2)C(=O)CCl)cc1` show?
Result: 9.5 µM

Query: Reported GI50, compound `Cc1cc(S(=O)(=O)Nc2nc3ccccc3[nH]2)c(SCc2ccccc2)cc1Cl` : ____
Result: 14.2 µM
